Readout name: melting point (°C)

compound="N=C(N)Nc1ccc(C(=O)Nc2ccc(Cc3nc(Cl)c(CC(=O)O)c(N4CCCC4)n3)cc2)cc1 [Example 1-52]" readout_name="melting point" operator== numeric_readout=176
compound="COc1cccc(C(=O)Nc2ccc(Cc3nc(Cl)c(CC(=O)O)c(N(C)C)n3)cc2)c1 [Example 1-48]" readout_name="melting point" operator=> numeric_readout=75
compound="CN(C)c1nc(Cc2ccc(NC(=O)/C=C/c3ccc(Cl)cc3)cc2)nc(Cl)c1CC(=O)O [Example 1-41]" readout_name="melting point" operator== numeric_readout=117
compound="CN(CC(=O)NC1CCCC1)c1nc(Cc2ccc(NC(=O)c3cc4ccccc4o3)cc2)nc(Cl)c1CC(=O)O [Example 1-25]" readout_name="melting point" operator== numeric_readout=118
compound="CC(=O)Nc1ccc(Cc2nc(Cl)c(CC(=O)O)c(N(C)CC(=O)NC3CCCC3)n2)cc1 [Example 1-10]" readout_name="melting point" operator=> numeric_readout=118
compound="Cc1ccc(CC(=O)Nc2ccc(Cc3nc(Cl)c(CC(=O)O)c(N(C)CC(=O)NC4CCCC4)n3)cc2)cc1 [Example 1-15]" readout_name="melting point" operator=> numeric_readout=116
compound="CN(C)c1nc(Cc2ccc(NC(=O)c3cc(Cl)cc(Cl)c3)cc2)nc(Cl)c1CC(=O)O [Example 1-46]" readout_name="melting point" operator=> numeric_readout=99
compound="CN(C)c1nc(Cc2ccccc2NC(=O)c2ccc3ccccc3c2)nc(Cl)c1CC(=O)O [Example 1-50]" readout_name="melting point" operator== numeric_readout=295
compound="COCCN(C)c1nc(Cc2ccc(NC(=O)c3ccc4ccccc4c3)cc2)nc(Cl)c1CC(=O)O [Example 3-5]" readout_name="melting point" operator== numeric_readout=144
compound="COc1ccc(C(=O)Nc2ccc(Cc3nc(Cl)c(CC(=O)O)c(N4CCCC4)n3)cc2)cc1[N+](=O)[O-] [Example 1-58]" readout_name="melting point" operator== numeric_readout=118
compound="O=C(O)Cc1c(Cl)nc(Cc2ccc(NC(=O)c3ccc(C(F)(F)F)cc3)cc2)nc1N1CCCC1 [Example 1-64]" readout_name="melting point" operator== numeric_readout=162
compound="COc1c(C)cc(C(=O)Nc2ccc(Cc3nc(Cl)c(CC(=O)O)c(N4CCCC4)n3)cc2)cc1C [Example 1-59]" readout_name="melting point" operator== numeric_readout=115

====

Reported values of IC50 for individual entries
# Measurement target: human CRTH2 (Homo sapiens)
# Construct: expressed in transfected cells; host or cells: L1.2 cells, pEAK expression vector, puromycin-selected
# Sequence (Q9Y5Y4 1-395): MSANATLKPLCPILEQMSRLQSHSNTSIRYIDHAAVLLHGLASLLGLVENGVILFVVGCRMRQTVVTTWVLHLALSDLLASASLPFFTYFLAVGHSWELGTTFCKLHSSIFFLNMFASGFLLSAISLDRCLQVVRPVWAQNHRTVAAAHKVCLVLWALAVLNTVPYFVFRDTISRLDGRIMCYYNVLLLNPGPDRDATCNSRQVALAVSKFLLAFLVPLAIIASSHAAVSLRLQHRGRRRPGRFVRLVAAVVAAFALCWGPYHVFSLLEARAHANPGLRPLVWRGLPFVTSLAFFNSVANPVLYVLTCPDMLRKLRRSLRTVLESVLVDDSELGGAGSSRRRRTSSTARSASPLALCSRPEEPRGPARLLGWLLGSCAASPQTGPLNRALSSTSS
# Assay summary: Measurement of Ca2+ mobilization in the human CRTH2-transfected L1.2 cell line (Assay 1)
# Type: cell-based
# Test parameters: PGD2-induced Ca2+ mobilization in CRTH2-transfected L1.2 cells; compounds as yielded by solid phase synthesis, purity about 40 to 90%; read-out: Activity class
Readout name: IC50

molecule="CN(C)c1nc(Cc2ccc(NC(=O)c3ccc(Cl)c(Cl)c3)cc2)ncc1CC(=O)O [Example 2-8]" measurement_target="human CRTH2 (Homo sapiens)" result="< 0.01 µM"
molecule="CN(C)c1nc(Cc2ccc(NC(=O)c3ccc4ccccc4n3)cc2)ncc1CC(=O)O [Example 2-9]" measurement_target="human CRTH2 (Homo sapiens)" result="0.01 to 0.1 µM"
molecule="CN(C)c1nc(Cc2ccc(NC(=O)/C=C/c3ccccc3)cc2)nc(Cl)c1CC(=O)O [Example 1-33]" measurement_target="human CRTH2 (Homo sapiens)" result="< 0.01 µM"
molecule="CN(C)c1nc(Cc2ccc(NC(=O)OCc3ccccc3)cc2)ncc1CC(=O)O [Example 9-1]" measurement_target="human CRTH2 (Homo sapiens)" result="0.01 to 0.1 µM"
molecule="CC(c1ccc(NC(=O)c2ccc(F)cc2)cc1)c1ncc(CC(=O)O)c(N(C)C)n1 (centres unmarked) [Example 2-26]" measurement_target="human CRTH2 (Homo sapiens)" result="< 0.01 µM"
molecule="CN(C)c1nc(Cc2ccc(NC(=O)c3cccc(Oc4ccccc4)c3)cc2)nc(N2CCCC2)c1CC(=O)O [Example 7-23]" measurement_target="human CRTH2 (Homo sapiens)" result="0.01 to 0.1 µM"
molecule="CN(CC(=O)NC1CCCC1)c1nc(Cc2ccc(NC(=O)Cc3ccc4c(c3)OCO4)cc2)nc(Cl)c1CC(=O)O [Example 1-29]" measurement_target="human CRTH2 (Homo sapiens)" result="0.1 to 0.5 µM"
molecule="CN(C)c1nc(Cc2ccc(NC(=O)/C=C/c3ccccc3)cc2)nc(N(C)C)c1CC(=O)O [Example 7-7]" measurement_target="human CRTH2 (Homo sapiens)" result="< 0.01 µM"

Each recorded value in this set is attributed to patent US7960393B2.
